System: HCT-116
Assay: Antiproliferative activity against human HCT116 cells after 48 hrs by MTT assay
Type: functional, cell-based
Settings: HCT-116, 48 h
observation type: IC50 (µM)
The answer is to be given in µM; state only the numeric part.

Query :: Look up and report measured IC50 for this entry: `O=c1oc2ccc3ccccc3c2cc1-c1n[nH]c(=O)c2nn(-c3ccccc3)cc12`
Result :: 130

---

System: WI-38
Assay: Antiproliferative activity against human WI38 cells after 48 hrs by MTT assay
Type: cell-based
Conditions: WI-38, 48 h
observation type: IC50 (µM)
Hi! Could you send only the number? It should be in µM, unit omitted.

Query :: Identify the reported IC50 for the following entry. `O=c1oc2ccc3ccccc3c2cc1-c1n[nH]c(=O)c2nn(-c3ccccc3)cc12`
Result :: 219
